Target: Pyroglutamylated RF-amide peptide receptor (Homo sapiens)
Test: Agonist activity at DYKDDDDK-flagged human GPR103 receptor expressed in CHO-K1 cells co-expressing G-protein alpha16 assessed as stimulation of calcium mobilization after 2 mins by fluorometric analysis
Assay type: functional, cell-based
Non-standard residues stand in square brackets, D forms with d. Residues, ends and D or L forms follow the SMILES beside them. *: point of attachment. hSer = N[C@@H](CCO)C(=O)O; Bz = O=C(c1ccccc1)*
Here, each record is paired with measured pEC50 data.
Note: pEC50 values are expressed as the negative base-10 logarithm of concentration in M.

N=C(N)NCCC[C@H](NC(=O)[C@H](Cc1ccccc1)NC(=O)[C@H](CO)NC(=O)[C@H](Cc1ccccc1)NC(=O)CNC(=O)CNC(=O)c1ccccc1)C(=O)N[C@@H](Cc1ccccc1)C(N)=O (Bz-GGFSFRF-NH2): 6.14
C[C@H](NC(=O)CNC(=O)CN)C(=O)N[C@@H](CO)C(=O)N[C@@H](Cc1ccccc1)C(=O)N[C@@H](CCCNC(=N)N)C(=O)N[C@@H](Cc1ccccc1)C(N)=O (H-GGASFRF-NH2): 5.88

Would you kindly look at the next entry?
Report pEC50 on Pyroglutamylated RF-amide peptide receptor (Homo sapiens) for this entry: N=C(N)NCCC[C@H](NC(=O)[C@H](Cc1ccccc1)NC(=O)[C@H](CCO)NC(=O)[C@H](Cc1ccccc1)NC(=O)CNC(=O)CN)C(=O)N[C@@H](Cc1ccccc1)C(N)=O (H-GGF[hSer]FRF-NH2) 6.43

----------
Here, each record is paired with measured log10 of EC50 data.
Biological target: Pyroglutamylated RF-amide peptide receptor (Homo sapiens)
Test: Agonist activity at DYKDDDDK-flagged human GPR103 receptor expressed in CHO-K1 cells co-expressing G-protein alpha16 assessed as stimulation of calcium mobilization after 2 mins by fluorometric analysis
Residues, ends and D or L forms follow the SMILES beside them. *: point of attachment. Phenylacetyl(4-F) = O=C(Cc1ccc(F)cc1)*; X2 = CN(C)C(=NCC(=O)*)N(C)C; X3 = C1CCN(N(N2CCCCC2)*)CC1; X1 = CCN(Cc1ccccc1)*
A difference of one corresponds to tenfold EC50; all values are log10 with EC50 in µM.

Illustrative cases are given below, each with its answer.
NC(=O)[C@H](Cc1ccccc1)NC(=O)[C@H](CCCN=C(N)N)NC(=O)[C@H](Cc1ccccc1)NC(=O)[C@H](CO)NC(=O)[C@H](Cc1ccccc1)NC(=O)CNC(=O)CNC(=O)Cc1ccc(F)cc1 ({Phenylacetyl(4-F)}-GGFSFRF-NH2): -0.08
CC(C)C[C@H](NC(=O)[C@H](Cc1ccccc1)NC(=O)CNC(=O)CN)C(=O)N[C@@H](Cc1ccccc1)C(=O)N[C@@H](CCCN=C(N)N)C(=O)N[C@@H](Cc1ccccc1)C(N)=O (H-GGFLFRF-NH2): 0.17
CN(C)C(=NCC(=O)N[C@@H](Cc1ccccc1)C(=O)N[C@@H](CO)C(=O)N[C@@H](Cc1ccccc1)C(=O)N[C@@H](CCCNC(=N)N)C(=O)N[C@@H](Cc1ccccc1)C(N)=O)N(C)C (X2-FSFRF-NH2): -0.34
NCCCC[C@H](N)C(=O)NCC(=O)NCC(=O)N[C@@H](Cc1ccccc1)C(=O)N[C@@H](CO)C(=O)N[C@@H](Cc1ccccc1)C(=O)N[C@@H](CCCN=C(N)N)C(=O)N[C@@H](Cc1ccccc1)C(N)=O (H-KGGFSFRF-NH2): 0.23
NCC(=O)NCC(=O)N[C@@H](Cc1ccccc1)C(=O)N[C@@H](CO)C(=O)N[C@@H](Cc1ccccc1)C(=O)N[C@@H](CCCN=C(N)N)C(=O)N[C@@H](Cc1ccccc1)C(=O)N(N1CCCCC1)N1CCCCC1 (H-GGFSFRF-X3): 0.08

Identify the reported log10 of EC50 for the following entry. NCCCC[C@H](NC(=O)[C@H](CCCCN)NC(=O)[C@H](CCCN=C(N)N)NC(=O)[C@@H](N)CO)C(=O)NCC(=O)NCC(=O)N[C@@H](Cc1ccccc1)C(=O)N[C@@H](CO)C(=O)N[C@@H](Cc1ccccc1)C(=O)N[C@@H](CCCN=C(N)N)C(=O)N[C@@H](Cc1ccccc1)C(N)=O (H-SRKKGGFSFRF-NH2) -0.63

Identify the reported log10 of EC50 for the following entry. C[C@H](NC(=O)CN)C(=O)N[C@@H](Cc1ccccc1)C(=O)N[C@@H](CO)C(=O)N[C@@H](Cc1ccccc1)C(=O)N[C@@H](CCCN=C(N)N)C(=O)N[C@@H](Cc1ccccc1)C(N)=O (H-GAFSFRF-NH2) 0.47

Identify the reported log10 of EC50 for the following entry. CCN(Cc1ccccc1)C(=O)[C@H](Cc1ccccc1)NC(=O)[C@H](CCCN=C(N)N)NC(=O)[C@H](Cc1ccccc1)NC(=O)[C@H](CO)NC(=O)[C@H](Cc1ccccc1)NC(=O)CNC(=O)CN (H-GGFSFRF-X1) 0.04

Identify the reported log10 of EC50 for the following entry. `CC[C@@H](C)[C@H](NC(=O)[C@H](Cc1ccccc1)NC(=O)CNC(=O)CN)C(=O)N[C@@H](Cc1ccccc1)C(=O)N[C@@H](CCCN=C(N)N)C(=O)N[C@@H](Cc1ccccc1)C(N)=O` -0.09

----------
Biological target: UniProt:Q96P65
Experiment: Agonist activity at DYKDDDDK-flagged human GPR103 receptor expressed in CHO-K1 cells co-expressing G-protein alpha16 assessed as stimulation of calcium mobilization after 2 mins by fluorometric analysis
Non-standard residues stand in square brackets, D forms with d. Residues, ends and D or L forms follow the SMILES beside them. *: point of attachment. Adamantane1carbonyl = O=C(C12CC3CC(CC(C3)C1)C2)*; Tle = CC(C)(C)[C@H](N)C(=O)O; 2Furoyl = O=C(c1ccco1)*
Result type: EC50 (nM)
The reply should be a number in nM, with the unit left off.

Illustrative cases are given below, each with its answer.
N=C(N)NCCC[C@H](NC(=O)[C@H](Cc1ccccc1)NC(=O)[C@H](CO)NC(=O)[C@H](Cc1ccccc1)NC(=O)CNC(=O)CNC(=O)[C@H](CCCCN)NC(=O)[C@H](CCCCN)NC(=O)[C@@H](N)CCCNC(=N)N)C(=O)N[C@@H](Cc1ccccc1)C(N)=O (H-RKKGGFSFRF-NH2): 282
CC(C)(C)[C@H](NC(=O)[C@H](Cc1ccccc1)NC(=O)CNC(=O)CN)C(=O)N[C@@H](Cc1ccccc1)C(=O)N[C@@H](CCCN=C(N)N)C(=O)N[C@@H](Cc1ccccc1)C(N)=O (H-GGF[Tle]FRF-NH2): 1820
NCCCC[C@H](NC(=O)[C@H](CCCCN)NC(=O)[C@H](CCCN=C(N)N)NC(=O)[C@H](CO)NC(=O)[C@H](Cc1ccc(O)cc1)NC(=O)CNC(=O)[C@@H](N)CC(N)=O)C(=O)NCC(=O)NCC(=O)N[C@@H](Cc1ccccc1)C(=O)N[C@@H](CO)C(=O)N[C@@H](Cc1ccccc1)C(=O)N[C@@H](CCCN=C(N)N)C(=O)N[C@@H](Cc1ccccc1)C(N)=O (H-NGYSRKKGGFSFRF-NH2): 95.3
CC(C)C[C@H](NC(=O)[C@H](CCC(=O)O)NC(=O)[C@@H](N)CCC(=O)O)C(=O)N[C@@H](CC(N)=O)C(=O)NCC(=O)N[C@@H](Cc1ccc(O)cc1)C(=O)N[C@@H](CO)C(=O)N[C@@H](CCCNC(=N)N)C(=O)N[C@@H](CCCCN)C(=O)N[C@@H](CCCCN)C(=O)NCC(=O)NCC(=O)N[C@@H](Cc1ccccc1)C(=O)N[C@@H](CO)C(=O)N[C@@H](Cc1ccccc1)C(=O)N[C@@H](CCCNC(=N)N)C(=O)N[C@@H](Cc1ccccc1)C(N)=O (H-EELNGYSRKKGGFSFRF-NH2): 37.5
C[C@H](NC(=O)[C@H](Cc1ccccc1)NC(=O)CNC(=O)CN)C(=O)N[C@@H](Cc1ccccc1)C(=O)N[C@@H](CCCNC(=N)N)C(=O)N[C@@H](Cc1ccccc1)C(N)=O (H-GGFAFRF-NH2): 1310
N=C(N)NCCC[C@H](NC(=O)[C@H](Cc1ccccc1)NC(=O)[C@H](CO)NC(=O)[C@H](Cc1ccccc1)NC(=O)CNC(=O)CNC(=O)C12CC3CC(CC(C3)C1)C2)C(=O)N[C@@H](Cc1ccccc1)C(N)=O (Adamantane1carbonyl-GGFSFRF-NH2): 588

Would you kindly look at the next entry?
Report EC50 on UniProt:Q96P65 for this entry: NC(=O)[C@H](Cc1ccccc1)NC(=O)[C@H](CCCN=C(N)N)NC(=O)[C@H](Cc1ccccc1)NC(=O)[C@H](CO)NC(=O)[C@H](Cc1ccccc1)NC(=O)CNC(=O)CNC(=O)c1ccco1 (2Furoyl-GGFSFRF-NH2) 695

----------
Target: Pyroglutamylated RF-amide peptide receptor (Homo sapiens, UniProt Q96P65)
Sequence (Q96P65 whole entry): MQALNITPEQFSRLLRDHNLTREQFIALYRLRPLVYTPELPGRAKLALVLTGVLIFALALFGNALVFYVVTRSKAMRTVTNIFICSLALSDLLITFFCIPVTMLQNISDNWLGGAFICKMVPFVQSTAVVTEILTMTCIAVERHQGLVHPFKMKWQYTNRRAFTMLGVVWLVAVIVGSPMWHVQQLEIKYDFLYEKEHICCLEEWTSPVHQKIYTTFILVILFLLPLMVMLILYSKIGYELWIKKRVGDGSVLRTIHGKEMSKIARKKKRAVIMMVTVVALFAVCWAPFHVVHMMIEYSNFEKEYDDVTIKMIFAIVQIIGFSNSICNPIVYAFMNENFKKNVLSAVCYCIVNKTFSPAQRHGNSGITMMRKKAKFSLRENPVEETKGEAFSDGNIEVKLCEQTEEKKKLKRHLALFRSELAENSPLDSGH
Assay: Agonist activity at DYKDDDDK-flagged human GPR103 receptor expressed in CHO-K1 cells co-expressing G-protein alpha16 assessed as stimulation of calcium mobilization after 2 mins by fluorometric analysis
Non-standard residues stand in square brackets, D forms with d. Residues, ends and D or L forms follow the SMILES beside them. *: point of attachment. Cha = N[C@@H](CC1CCCCC1)C(=O)O; Nle = CCCC[C@H](N)C(=O)O; Cbz = O=C(OCc1ccccc1)*
So basically, if EC50 comes in under 1 µM it's label 1, and if it's 1 µM or more it's label 0.

Use these answered entries as a reference point.
N=C(N)NCCC[C@H](NC(=O)[C@H](Cc1ccccc1)NC(=O)[C@H](CO)NC(=O)[C@H](Cc1ccccc1)NC(=O)CNC(=O)CNC(=O)[C@H](CCCCN)NC(=O)[C@H](CCCCN)NC(=O)[C@H](CCCNC(=N)N)NC(=O)[C@H](CO)NC(=O)[C@H](Cc1ccc(O)cc1)NC(=O)CN)C(=O)N[C@@H](Cc1ccccc1)C(N)=O (H-GYSRKKGGFSFRF-NH2): label 1
CC(C)[C@H](NC(=O)[C@H](Cc1ccccc1)NC(=O)CNC(=O)CN)C(=O)N[C@@H](Cc1ccccc1)C(=O)N[C@@H](CCCN=C(N)N)C(=O)N[C@@H](Cc1ccccc1)C(N)=O (H-GGFVFRF-NH2): label 0
CC(=O)NCC(=O)NCC(=O)N[C@@H](Cc1ccccc1)C(=O)N[C@@H](CO)C(=O)N[C@@H](Cc1ccccc1)C(=O)N[C@@H](CCCNC(=N)N)C(=O)N[C@@H](Cc1ccccc1)C(N)=O (Ac-GGFSFRF-NH2): label 0
NCCCC[C@H](NC(=O)[C@H](CCCCN)NC(=O)[C@H](CCCN=C(N)N)NC(=O)[C@H](CO)NC(=O)[C@@H](N)Cc1ccc(O)cc1)C(=O)NCC(=O)NCC(=O)N[C@@H](Cc1ccccc1)C(=O)N[C@@H](CO)C(=O)N[C@@H](Cc1ccccc1)C(=O)N[C@@H](CCCN=C(N)N)C(=O)N[C@@H](Cc1ccccc1)C(N)=O (H-YSRKKGGFSFRF-NH2): label 1

Hello, is EC50 of the following molecule strictly smaller than 1 µM? N=C(N)NCCC[C@H](NC(=O)[C@H](Cc1ccccc1)NC(=O)[C@H](CC1CCCCC1)NC(=O)[C@H](Cc1ccccc1)NC(=O)CNC(=O)CN)C(=O)N[C@@H](Cc1ccccc1)C(N)=O (H-GGF[Cha]FRF-NH2) label 0

Hello, is EC50 of the following molecule strictly smaller than 1 µM? C[C@H](NC(=O)[C@H](Cc1cnc[nH]1)NC(=O)[C@@H](N)CCC(=O)O)C(=O)NCC(=O)N[C@@H](CS)C(=O)N[C@@H](CCCN=C(N)N)C(=O)N[C@@H](Cc1ccccc1)C(=O)N[C@@H](CCCN=C(N)N)C(=O)N[C@@H](Cc1ccccc1)C(N)=O (H-EHAGCRFRF-NH2) label 0

Hello, is EC50 of the following molecule strictly smaller than 1 µM? CCCC[C@H](NC(=O)[C@H](Cc1ccccc1)NC(=O)CNC(=O)CN)C(=O)N[C@@H](Cc1ccccc1)C(=O)N[C@@H](CCCN=C(N)N)C(=O)N[C@@H](Cc1ccccc1)C(N)=O (H-GGF[Nle]FRF-NH2) label 1

Hello, is EC50 of the following molecule strictly smaller than 1 µM? NC(=O)[C@H](Cc1ccccc1)NC(=O)[C@H](CCCN=C(N)N)NC(=O)[C@H](Cc1ccccc1)NC(=O)[C@H](CO)NC(=O)[C@H](Cc1ccccc1)NC(=O)CNC(=O)CNC(=O)OCc1ccccc1 (Cbz-GGFSFRF-NH2) label 1
